# Test system: PC3-PIP tumor model
# Set-up: species or system mice
# measurement_context: mouse, in vivo
# Text: Radioactively labeled compounds can be detected by imaging methods such as SPECT and PET. Furthermore, the data acquired by such techniques can be confirmed by direct measurement of radioactivity contained in the individual organs prepared from an animal injected with a radioactively labeled compound of the disclosure. Thus, the biodistribution (the measurement of radioactivity in individual organs) of a radioactively labeled compound can be determined and analyzed. […]
Numbered stars: 1 amine (or outer) side, 2 acyl side, 3 side chain; on linkers, the order of the positions; unused ones are H or OH. Bridge positions count the residues as written; N and C are the ends. Square brackets hold non-standard residues; d marks the D form. Peptide text beside a SMILES is read from it. * marks the point of attachment. DOTA = O=C(O)CN1CCN(CC(=O)O)CCN(CC(=O)*)CCN(CC(=O)O)CC1; Phe(4-Cl) = N[C@@H](Cc1ccc(Cl)cc1)C(=O)O; NMeT = CN[C@H](C(=O)O)[C@@H](C)O; X1 = O=C(CC1CCN([*:1])CC1)[*:2]; Aib = CC(C)(N)C(=O)O
measure: AUC ratio [T/K]
Answer with a bare number; do not write a unit.

Look up AUC ratio [T/K] for this molecule: CC(C)[C@H](NC(=O)[C@@H]1CSSC[C@H](NC(=O)[C@H](Cc2ccc(Cl)cc2)NC(=O)C(C)(C)NC(=O)[C@@H](NC(=O)CC2CCN(C(=O)CN3CCN(CC(=O)O)CCN(CC(=O)O)CCN(CC(=O)O)CC3)CC2)[C@@H](C)O)C(=O)N[C@@H](CCCCN)C(=O)N[C@@H](CCCNC(=N)N)C(=O)NC(C)(C)C(=O)N[C@@H](CC(N)=O)C(=O)N1)C(=O)N(C)[C@H](C(N)=O)[C@@H](C)O [PSM-0377] ({DOTA}-[X1]T[Aib][Phe(4-Cl)]CKR[Aib]NCV[NMeT]-NH2; disulfide 5-10)
1.1

---

# target: Fc-fusion protein of human PSMA (hPSMA-Fc) (Homo sapiens, UniProt Q04609)
# Construct: purchased Acro Biosystems PSA-H5264
# Sequence (Q04609 44-750 limits assumed): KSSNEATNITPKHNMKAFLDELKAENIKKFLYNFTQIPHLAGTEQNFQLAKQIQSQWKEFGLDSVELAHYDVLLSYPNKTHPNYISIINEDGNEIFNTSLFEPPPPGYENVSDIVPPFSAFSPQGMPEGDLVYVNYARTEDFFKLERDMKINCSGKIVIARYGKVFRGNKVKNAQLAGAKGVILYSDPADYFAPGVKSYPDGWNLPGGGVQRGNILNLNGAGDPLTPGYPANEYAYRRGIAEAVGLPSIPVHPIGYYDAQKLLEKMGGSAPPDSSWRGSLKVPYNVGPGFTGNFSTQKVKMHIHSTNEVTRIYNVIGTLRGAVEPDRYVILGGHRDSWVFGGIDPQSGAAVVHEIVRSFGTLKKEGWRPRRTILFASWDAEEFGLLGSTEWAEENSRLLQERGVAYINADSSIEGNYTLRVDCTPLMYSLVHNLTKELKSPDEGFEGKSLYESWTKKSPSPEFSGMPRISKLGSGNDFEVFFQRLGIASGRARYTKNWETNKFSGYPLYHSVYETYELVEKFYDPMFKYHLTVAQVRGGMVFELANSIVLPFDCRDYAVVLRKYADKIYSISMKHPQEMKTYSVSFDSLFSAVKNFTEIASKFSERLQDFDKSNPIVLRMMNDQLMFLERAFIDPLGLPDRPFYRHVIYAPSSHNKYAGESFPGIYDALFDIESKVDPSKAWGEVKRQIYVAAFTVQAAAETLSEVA
# method: Surface plasmon resonance assay (Biacore T200, single cycle kinetic)
# Type: binding
# measurement_context: pKD category for PSMA SPR activity assay, hPSMA-Fc, 25° C.; read-out: pKD CAT (converted)
Numbered stars: 1 amine (or outer) side, 2 acyl side, 3 side chain; on linkers, the order of the positions; unused ones are H or OH. Bridge positions count the residues as written; N and C are the ends. Square brackets hold non-standard residues; d marks the D form. Side chains are listed from the residue outwards. Peptide text beside a SMILES is read from it. * marks the point of attachment. DOTA = O=C(O)CN1CCN(CC(=O)O)CCN(CC(=O)*)CCN(CC(=O)O)CC1; Phe(4-Cl) = N[C@@H](Cc1ccc(Cl)cc1)C(=O)O; Phe(3-Me) = Cc1cccc(C[C@H](N)C(=O)O)c1; Arg(Me) = CNC(=N)NCCC[C@H](N)C(=O)O; 2Pal = N[C@@H](Cc1ccccn1)C(=O)O; X1 = O=C(CC1CCN([*:1])CC1)[*:2]; Cit = NC(=O)NCCC[C@H](N)C(=O)O; Lys(Me) = CNCCCC[C@H](N)C(=O)O; Tle = CC(C)(C)[C@H](N)C(=O)O; Propanoyl(3-OH) = O=C(CCO)*; AEEA = NCCOCCOCC(=O)O; Aib = CC(C)(N)C(=O)O
measure: Kd

Name the recorded Kd for CC(=O)N[C@H](C(=O)NC(C)(C)C(=O)N[C@@H](Cc1ccccc1)C(=O)N[C@H]1CSSC[C@@H](C(=O)N[C@H](C(=O)N[C@H](C(N)=O)[C@@H](C)O)C(C)(C)C)NC(=O)[C@H](Cc2ccccc2)NC(=O)C(C)(C)NC(=O)[C@H](CCCNC(=N)N)NC(=O)[C@H](CCCCN)NC1=O)[C@@H](C)O [PSM-0541] (Ac-T[Aib]FCKR[Aib]FC[Tle]T-NH2; disulfide 4-9) .
< 12.6 nM

Next: CNCCCC[C@@H]1NC(=O)[C@@H](NC(=O)[C@H](Cc2cccc(C)c2)NC(=O)C(C)(C)NC(=O)[C@@H](NC(=O)CC2CCN(C(=O)CN3CCN(CC(=O)O)CCN(CC(=O)O)CCN(CC(=O)O)CC3)CC2)[C@@H](C)O)CSSC[C@@H](C(=O)N[C@H](C(N)=O)C(C)(C)C)NC(=O)[C@H](CC(N)=O)NC(=O)C(C)(C)NC(=O)[C@H](CCCNC(=N)NC)NC1=O [PSM-0503] ({DOTA}-[X1]T[Aib][Phe(3-Me)]C[Lys(Me)][Arg(Me)][Aib]NC[Tle]-NH2; disulfide 5-10)
12.6 to 126 nM

For C[C@@H](O)[C@H](NC(=O)[C@@H](NC(=O)[C@@H]1CSSC[C@H](NC(=O)[C@H](Cc2ccccc2)NC(=O)C(C)(C)NC(=O)CCO)C(=O)N[C@@H](CCCCN)C(=O)N[C@@H](CCCNC(=N)N)C(=O)NC(C)(C)C(=O)N[C@@H](CC(N)=O)C(=O)N1)C(C)(C)C)C(N)=O [PSM-0530] ({Propanoyl(3-OH)}-[Aib]FCKR[Aib]NC[Tle]T-NH2; disulfide 3-8) then?
< 12.6 nM

Next up: C[C@@H](O)[C@H](NC(=O)[C@@H](NC(=O)[C@@H]1CSSC[C@H](NC(=O)[C@H](Cc2ccccn2)NC(=O)C(C)(C)NC(=O)[C@@H](NC(=O)CC2CCN(C(=O)CN3CCN(CC(=O)O)CCN(CC(=O)O)CCN(CC(=O)O)CC3)CC2)[C@@H](C)O)C(=O)N[C@@H](CCCCN)C(=O)N[C@@H](CCCNC(N)=O)C(=O)NC(C)(C)C(=O)N[C@@H](CC(N)=O)C(=O)N1)C(C)(C)C)C(N)=O [PSM-0512] ({DOTA}-[X1]T[Aib][2Pal]CK[Cit][Aib]NC[Tle]T-NH2; disulfide 5-10)
12.6 to 126 nM

Same lookup for CC(=O)N[C@H](C(=O)NC(C)(C)C(=O)N[C@@H](Cc1ccc(Cl)cc1)C(=O)N[C@H]1CSSC[C@@H](C(=O)N[C@H](C(=O)N[C@H](C(N)=O)[C@@H](C)O)C(C)(C)C)NC(=O)[C@H](CC(N)=O)NC(=O)[C@H](CCCCNC(=O)COCCOCCNC(=O)CN2CCN(CC(=O)O)CCN(CC(=O)O)CCN(CC(=O)O)CC2)NC(=O)[C@H](CCCNC(=N)N)NC(=O)[C@H](CCCCN)NC1=O)[C@@H](C)O [PSM-0370] (Ac-T[Aib][Phe(4-Cl)]CKRK([AEEA-DOTA])NC[Tle]T-NH2; disulfide 4-9) , please.
< 12.6 nM

---

# Test system: PC3-PIP tumor model
# Set-up: species or system mice
# measurement_context: mouse, in vivo
Numbered stars: 1 amine (or outer) side, 2 acyl side, 3 side chain; on linkers, the order of the positions; unused ones are H or OH. Bridge positions count the residues as written; N and C are the ends. Square brackets hold non-standard residues; d marks the D form. Peptide text beside a SMILES is read from it. * marks the point of attachment. DOTA = O=C(O)CN1CCN(CC(=O)O)CCN(CC(=O)*)CCN(CC(=O)O)CC1; Phe(4-Cl) = N[C@@H](Cc1ccc(Cl)cc1)C(=O)O; X1 = O=C(CC1CCN([*:1])CC1)[*:2]; Aad = N[C@@H](CCCC(=O)O)C(=O)O; Tle = CC(C)(C)[C@H](N)C(=O)O; Aib = CC(C)(N)C(=O)O
measure: AUC ratio [T/K]
Give the value as a plain number.

GET /values?readout=AUC ratio [T/K]&system=PC3-PIP tumor model&item= C[C@@H](O)[C@H](NC(=O)[C@@H](NC(=O)[C@@H]1CSSC[C@H](NC(=O)[C@H](Cc2ccc(Cl)cc2)NC(=O)C(C)(C)NC(=O)[C@@H](NC(=O)CC2CCN(C(=O)CN3CCN(CC(=O)O)CCN(CC(=O)O)CCN(CC(=O)O)CC3)CC2)[C@@H](C)O)C(=O)N[C@@H](CCCCN)C(=O)N[C@@H](CCCC(N)=O)C(=O)NC(C)(C)C(=O)N[C@@H](CC(N)=O)C(=O)N1)C(C)(C)C)C(N)=O [PSM-0531] ({DOTA}-[X1]T[Aib][Phe(4-Cl)]CK[Aad](NH2)[Aib]NC[Tle]T-NH2; disulfide 5-10)
1.6

---

Give measured Kd for each item. Keep answers brief.
# target: Fc-fusion protein of human PSMA (hPSMA-Fc) (Homo sapiens)
# Construct: purchased Acro Biosystems PSA-H5264
# method: Surface plasmon resonance assay (Biacore T200, single cycle kinetic)
# Assay type: binding
# measurement_context: SPR, hPSMA-Fc, single cycle kinetic, 25° C.; category; read-out: pKD CAT (converted)
Numbered stars: 1 amine (or outer) side, 2 acyl side, 3 side chain; on linkers, the order of the positions; unused ones are H or OH. Bridge positions count the residues as written; N and C are the ends. Square brackets hold non-standard residues; d marks the D form. Peptide text beside a SMILES is read from it. * marks the point of attachment. DOTA = O=C(O)CN1CCN(CC(=O)O)CCN(CC(=O)*)CCN(CC(=O)O)CC1; Trp(5-Br) = N[C@@H](Cc1c[nH]c2ccc(Br)cc12)C(=O)O; Phe(4-Cl) = N[C@@H](Cc1ccc(Cl)cc1)C(=O)O; Arg(Me) = CNC(=N)NCCC[C@H](N)C(=O)O; X1 = O=C(CC1CCN([*:1])CC1)[*:2]; Cit = NC(=O)NCCC[C@H](N)C(=O)O; Lys(Me) = CNCCCC[C@H](N)C(=O)O; Tle = CC(C)(C)[C@H](N)C(=O)O; Aib = CC(C)(N)C(=O)O

Query: Kd; subject: CSCC[C@@H]1NC(=O)C(C)(C)NC(=O)[C@H](CCCNC(N)=O)NC(=O)[C@H](CCCCN)NC(=O)[C@@H](NC(=O)[C@H](Cc2ccc(Cl)cc2)NC(=O)C(C)(C)NC(=O)[C@@H](NC(C)=O)[C@@H](C)O)CSSC[C@@H](C(=O)N[C@H](C(=O)N[C@H](C(N)=O)[C@@H](C)O)C(C)(C)C)NC1=O [PSM-0229] (Ac-T[Aib][Phe(4-Cl)]CK[Cit][Aib]MC[Tle]T-NH2; disulfide 4-9)
< 0.0126 µM

Please do the same for CNCCCC[C@@H]1NC(=O)[C@@H](NC(=O)[C@H](Cc2c[nH]c3ccc(Br)cc23)NC(=O)C(C)(C)NC(=O)[C@@H](NC(=O)CC2CCN(C(=O)CN3CCN(CC(=O)O)CCN(CC(=O)O)CCN(CC(=O)O)CC3)CC2)[C@@H](C)O)CSSC[C@@H](C(=O)N[C@H](C(=O)N[C@H](C(N)=O)[C@@H](C)O)C(C)(C)C)NC(=O)[C@H](CC(N)=O)NC(=O)C(C)(C)NC(=O)[C@H](CCCNC(=N)NC)NC1=O [PSM-0206] ({DOTA}-[X1]T[Aib][Trp(5-Br)]C[Lys(Me)][Arg(Me)][Aib]NC[Tle]T-NH2; disulfide 5-10) as well.
> 0.501 µM
